- Target entity: native human MET on living cells (human, UniProt P08581 25-1390)
- Sequence (P08581 25-1390): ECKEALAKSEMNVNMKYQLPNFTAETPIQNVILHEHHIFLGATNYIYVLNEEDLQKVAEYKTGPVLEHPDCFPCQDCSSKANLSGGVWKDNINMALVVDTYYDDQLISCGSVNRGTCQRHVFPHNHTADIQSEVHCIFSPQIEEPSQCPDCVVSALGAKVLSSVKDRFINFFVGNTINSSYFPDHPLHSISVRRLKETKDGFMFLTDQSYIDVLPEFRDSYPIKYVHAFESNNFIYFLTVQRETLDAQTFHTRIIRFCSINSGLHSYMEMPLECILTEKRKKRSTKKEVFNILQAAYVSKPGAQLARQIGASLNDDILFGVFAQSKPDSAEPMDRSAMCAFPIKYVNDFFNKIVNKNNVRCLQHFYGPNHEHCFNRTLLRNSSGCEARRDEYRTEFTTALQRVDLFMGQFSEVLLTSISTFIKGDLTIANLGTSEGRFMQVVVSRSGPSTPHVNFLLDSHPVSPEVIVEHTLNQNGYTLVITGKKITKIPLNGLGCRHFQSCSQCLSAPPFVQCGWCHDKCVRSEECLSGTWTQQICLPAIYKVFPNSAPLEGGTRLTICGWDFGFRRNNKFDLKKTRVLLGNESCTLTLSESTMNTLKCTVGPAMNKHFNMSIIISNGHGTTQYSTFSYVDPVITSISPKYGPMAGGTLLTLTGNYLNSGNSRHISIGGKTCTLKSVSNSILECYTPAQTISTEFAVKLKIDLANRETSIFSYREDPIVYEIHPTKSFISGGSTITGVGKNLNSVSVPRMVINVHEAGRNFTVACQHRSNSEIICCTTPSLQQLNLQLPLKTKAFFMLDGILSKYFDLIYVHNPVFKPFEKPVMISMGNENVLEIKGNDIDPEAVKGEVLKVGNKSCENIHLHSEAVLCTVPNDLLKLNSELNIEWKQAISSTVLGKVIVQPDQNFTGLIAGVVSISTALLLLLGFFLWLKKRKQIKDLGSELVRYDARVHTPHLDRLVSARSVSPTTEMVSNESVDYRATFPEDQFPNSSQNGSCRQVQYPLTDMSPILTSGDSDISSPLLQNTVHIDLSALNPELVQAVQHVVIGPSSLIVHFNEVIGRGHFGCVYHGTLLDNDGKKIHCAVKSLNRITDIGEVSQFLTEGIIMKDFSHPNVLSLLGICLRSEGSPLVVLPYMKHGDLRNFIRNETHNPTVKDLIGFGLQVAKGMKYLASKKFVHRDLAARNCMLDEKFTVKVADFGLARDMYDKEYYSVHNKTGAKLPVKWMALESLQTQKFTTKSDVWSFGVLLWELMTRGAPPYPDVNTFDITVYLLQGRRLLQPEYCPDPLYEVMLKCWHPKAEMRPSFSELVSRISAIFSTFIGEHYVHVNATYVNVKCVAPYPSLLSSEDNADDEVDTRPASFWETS
- Experiment notes: cell-based or functional assay
Measured parameter: branches per spheroid, LOC cells, 12.5 nM

Binder | Result
71D4 chimeric llama-human IgG1 mAb (antibody, V domains shown, llama VH on human IgG1 CH1-CH2-CH3, llama VL on human lambda CL) VH: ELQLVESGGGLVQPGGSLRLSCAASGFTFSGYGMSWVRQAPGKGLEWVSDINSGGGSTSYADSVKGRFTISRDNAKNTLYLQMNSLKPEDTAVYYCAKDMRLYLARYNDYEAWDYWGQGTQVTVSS VL: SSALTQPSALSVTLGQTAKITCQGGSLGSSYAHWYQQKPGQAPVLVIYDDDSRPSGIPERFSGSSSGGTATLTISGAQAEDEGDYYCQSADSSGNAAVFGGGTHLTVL | 18.7 branches
71G3 chimeric llama-human IgG1 mAb (antibody, V domains shown, llama VH on human IgG1 CH1-CH2-CH3, llama VL on human lambda CL) VH: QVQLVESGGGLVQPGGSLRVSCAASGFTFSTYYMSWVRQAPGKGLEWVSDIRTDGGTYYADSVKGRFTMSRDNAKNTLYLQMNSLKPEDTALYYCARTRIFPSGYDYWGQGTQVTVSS VL: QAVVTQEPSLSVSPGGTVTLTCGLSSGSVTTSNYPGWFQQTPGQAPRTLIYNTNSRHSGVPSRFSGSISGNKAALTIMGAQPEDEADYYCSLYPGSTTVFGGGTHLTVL | 22.3 branches
71A3 chimeric llama-human IgG1 mAb (antibody, V domains shown, llama VH on human IgG1 CH1-CH2-CH3, llama VL on human lambda CL) VH: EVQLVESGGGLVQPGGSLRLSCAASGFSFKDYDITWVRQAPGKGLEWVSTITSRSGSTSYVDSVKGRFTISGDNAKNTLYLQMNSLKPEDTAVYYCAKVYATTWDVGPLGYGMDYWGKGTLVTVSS VL: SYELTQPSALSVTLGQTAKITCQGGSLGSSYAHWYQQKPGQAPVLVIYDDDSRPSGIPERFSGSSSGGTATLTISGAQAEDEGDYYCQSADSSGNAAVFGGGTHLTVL | 31.3 branches
72F8 chimeric llama-human IgG1 mAb (antibody, V domains shown, llama VH on human IgG1 CH1-CH2-CH3, llama VL on human lambda CL) VH: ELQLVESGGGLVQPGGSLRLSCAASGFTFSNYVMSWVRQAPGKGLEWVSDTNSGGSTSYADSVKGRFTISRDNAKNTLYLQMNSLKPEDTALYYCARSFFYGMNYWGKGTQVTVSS VL: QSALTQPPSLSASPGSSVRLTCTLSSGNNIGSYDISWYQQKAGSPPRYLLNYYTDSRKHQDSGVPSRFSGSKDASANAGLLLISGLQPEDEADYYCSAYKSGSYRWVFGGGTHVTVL | 16 branches
